Where do the numbers come from? From the Human Domainome abundance scans (Beltran et al. 2025).

B1: POU domain, class 2, transcription factor 2, residues 200 to 269; numbered along this chain, P09086 (parent)
chain: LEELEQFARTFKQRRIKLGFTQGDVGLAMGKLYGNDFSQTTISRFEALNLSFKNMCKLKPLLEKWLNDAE

- Variants of: B1
- Assay Procedure: abundance fitness (aPCA) (normalised: wild type 0, dead -1); higher = more abundant; growth selection in yeast, the domain comes from the species named
- Particulars: Homo sapiens
# binning rule on abundance fitness: c1 (below -0.5), c2 (-0.5 to below -0.2), c3 (-0.2 or more)

GET /class?item= `D24M`
c3

Into which category would you place `F45E` ?
c1

Sort `L58P` into one of the categories.
c1

Sort `R44P` into one of the categories.
c1

Form field 'band' for `L27P`
c2

Hi there! Could you help me figure out the category for `T41I` please?
c3

Using the reported abundance fitness, which band applies to `E5Q` ?
c3

Lab note: which band did `S51C` land in?
c3

Please report the category associated with `L48Y` , nothing else.
c2
